Where do these numbers come from? They come from PubChem BioAssay AID504834.

experiment: Primary qHTS for delayed death inhibitors of the malarial parasite plastid, 96 hour incubation; conditions: P. falciparum luciferase reporter growth; series mostly up to 28.7 µM
Hit rate of the full screen: of about 320,000 compounds, about 22,000 (6.9%) were called active. Another 27% or so got no clear call; they are omitted. Calls come from the whole dose curve; as a rule, active = well fitted inhibition curve with a large enough effect; inconclusive = small, poorly fitted or top-dose-only effect, or another doubt; inactive = no such curve, though single readings can be large or run the other way. This is one part of a sample in which actives are shown more often than they occur.
API: response.call in yes = active, no = inactive

CCCCN(C(=O)C(CCSC)N1C(=O)c2ccccc2C1=O)c1c(N)n(CCC)c(=O)[nH]c1=O (stereo unspecified)
no

Hello, I am checking results. What call was entered for Cc1ccccc1CNC(=O)CCC(=O)N1Cc2ccccc2Oc2ncccc21 ?
yes

Hello, I am checking results. What call was entered for CC1CN(C(=O)CCC(=O)NCc2cccnc2)c2ccccc2O1 (stereo unspecified) ?
no

Hello, I am checking results. What call was entered for Cc1ccc(Nc2nc(N3CCOCC3)nc(N3CCOCC3)n2)cc1Cl ?
no

Hello, I am checking results. What call was entered for Cc1ccc2c(c1)N(C(=O)CCC(=O)NCc1cccnc1)CCO2 ?
no

----------
test: Primary qHTS for delayed death inhibitors of the malarial parasite plastid, 96 hour incubation; settings: P. falciparum luciferase reporter growth; series mostly up to 28.7 µM
Screen size: about 320,000 compounds; about 22,000 (6.9%) were called active. Not shown: some 27% with an inconclusive outcome. Calls follow the shape of the dose curve; as a rule, active = well fitted inhibition curve with a large enough effect; inconclusive = small, poorly fitted or top-dose-only effect, or another doubt; inactive = no such curve, though single readings can be large or run the other way. The sample as a whole holds a higher share of actives than the screen did.
API: response.call in yes (1) (active), no (0) (inactive)

Hello, I am checking results. What call was entered for COc1cc(/C=C(/NC(=O)c2ccc(Cl)cc2Cl)C(=O)O)cc(OC)c1OC ?
no (0)

Hello, I am checking results. What call was entered for O=C(CN(C(=O)c1csnn1)c1cccc(Cl)c1)NC1CCCC1 ?
no (0)

Hello, I am checking results. What call was entered for CCOc1cc(/C=C(/C#N)c2ccc(Cl)cc2)cc(Cl)c1OCC(=O)O ?
yes (1)

Hello, I am checking results. What call was entered for C=CCn1cc(Cl)cc(C(=O)Nc2ccccc2)c1=O ?
no (0)

Hello, I am checking results. What call was entered for O=S(=O)(c1cccs1)N1CCN(Cc2ccccc2)CC1 ?
no (0)

Hello, I am checking results. What call was entered for COc1ccc(C2/C=C\CN(CC(C)C)CC(=O)N2Cc2ccc(F)cc2)cc1 (stereo unspecified) ?
no (0)

----------
test: Primary qHTS for delayed death inhibitors of the malarial parasite plastid, 96 hour incubation; details: P. falciparum luciferase reporter growth; series mostly up to 28.7 µM
Among all 320,000 compounds or so, about 22,000 (6.9%) were called active. Roughly 27% stayed inconclusive and do not appear here. Calls follow the shape of the dose curve; as a rule, active = well fitted inhibition curve with a large enough effect; inconclusive = small, poorly fitted or top-dose-only effect, or another doubt; inactive = no such curve, though single readings can be large or run the other way. This excerpt belongs to a sample that is enriched for actives.
API: response.call in t for active, f for inactive

Completed entries (count: 3):
CC(=O)c1cccc(CN2CCC(CO)(Cc3ccccc3)CC2)c1
f
N#Cc1ccccc1NC(=O)c1ccc2c(c1)OCO2
f
CCN1C(=O)[C@H]2[C@@H](c3ccc(-c4ccc(F)cc4)cc3)N[C@@](Cc3ccccc3)(C(=O)OC)[C@H]2C1=O
t

Hello, I am checking results. What call was entered for N#Cc1ccc(OCC(=O)NC(=O)NC2CCS(=O)(=O)C2)cc1 (stereo unspecified) ?
f

----------
test: Primary qHTS for delayed death inhibitors of the malarial parasite plastid, 96 hour incubation; conditions: P. falciparum luciferase reporter growth; series mostly up to 28.7 µM
Out of some 320,000 compounds screened, about 22,000 (6.9%) were called active. About 27% were inconclusive and are not listed. Calls come from the whole dose curve; as a rule, active = well fitted inhibition curve with a large enough effect; inconclusive = small, poorly fitted or top-dose-only effect, or another doubt; inactive = no such curve, though single readings can be large or run the other way. Many of the other results were omitted from the sample, so actives are more common in it than they were.
API: response.call in TRUE for active, FALSE for inactive

Completed entries (count: 4):
O=C1Nc2ccccc2/C1=C/c1ccnc2ccccc12
FALSE
CC(C)(C)c1ccc(OC2=CS(=O)(=O)c3ccccc32)cc1
TRUE
COc1cc(OC)cc(/C(N)=N/O)c1
FALSE
CCCNC(=O)N1CCC(c2ccc3c(c2)OCO3)CC1
FALSE

Hello, I am checking results. What call was entered for COCCN(C(=O)COC(=O)Cc1cccc(OC)c1)c1c(N)n(Cc2ccccc2)c(=O)[nH]c1=O ?
FALSE

Hello, I am checking results. What call was entered for O=C(/C=C/c1ccccc1)N/C(=C/c1ccccc1)C(=O)Nc1ccccc1O ?
FALSE

Hello, I am checking results. What call was entered for CC1CCN(CC(=O)Nc2nccs2)CC1 ?
FALSE

Hello, I am checking results. What call was entered for Cc1ccc(Cl)cc1N1CCN(C(=O)c2cccc3c(=O)c(C)c(-c4ccccc4)oc23)CC1 ?
TRUE

----------
assay: Primary qHTS for delayed death inhibitors of the malarial parasite plastid, 96 hour incubation; conditions: P. falciparum luciferase reporter growth; series mostly up to 28.7 µM
About 22,000 (6.9%) of roughly 320,000 compounds were called active. Not shown: some 27% with an inconclusive outcome. Calls follow the shape of the dose curve; as a rule, active = well fitted inhibition curve with a large enough effect; inconclusive = small, poorly fitted or top-dose-only effect, or another doubt; inactive = no such curve, though single readings can be large or run the other way. Shown is part of a subset that was picked to be rich in actives.
API: response.call in active, inactive

Completed entries (count: 8):
Cc1ccc(Cl)c(OCC(=O)N2CCc3ccccc3C2)c1
inactive
COc1ccc(S(=O)(=O)NC(C)c2ccccc2)cc1C(=O)N1CCCCC1 (stereo not drawn)
inactive
CC(=O)c1ccc(NC(=O)C2CC(=O)Nc3nc4ccccc4n32)cc1 (stereo not drawn)
inactive
Cc1ccc(-n2c(O)c(C=Nc3ccc(S(=O)(=O)Nc4ncccn4)cc3)c3ccccc3c2=O)cc1C
inactive
COc1cc(OC)c(C(=O)OCC(=O)N2CC(=O)Nc3ccccc32)cc1OC
inactive
O=C(Cc1cccc2ccccc12)NCCC1=CCCCC1
inactive
COc1ccccc1CNC(=O)CCCN1C(=O)NC2(CCCC2)C1=O
inactive
Nc1ccccc1C(=O)NC1CCCCNC1=O (stereo not drawn)
inactive

Hello, I am checking results. What call was entered for COc1ccccc1CNC(=O)CCCn1c(=O)c2ccccc2n(CC(=O)NC2CCCC2)c1=O ?
active

Hello, I am checking results. What call was entered for COC(=O)C(C)n1cnc2c(nnn2-c2ccc(F)cc2)c1=O (stereo not drawn) ?
inactive

----------
test: Primary qHTS for delayed death inhibitors of the malarial parasite plastid, 96 hour incubation; settings: P. falciparum luciferase reporter growth; series mostly up to 28.7 µM
In all, about 320,000 compounds went through this assay and about 22,000 (6.9%) were called active. About 27% were inconclusive and are not listed. Calls come from the whole dose curve; as a rule, active = well fitted inhibition curve with a large enough effect; inconclusive = small, poorly fitted or top-dose-only effect, or another doubt; inactive = no such curve, though single readings can be large or run the other way. Only a selection was taken, and actives are over-represented in it overall.
API: response.call in YES = active, NO = inactive

CCC(C)Sc1nc2c(cnn2-c2ccc(F)cc2)c(=O)[nH]1 (centres undefined)
NO
CCOC(=O)C1=C(C)Nc2sc(C(=O)c3ccc(Br)cc3)c(N)c2C1c1ccc(C(=O)OC)cc1 (centres undefined)
YES

Hello, I am checking results. What call was entered for Cc1nn(CCOc2ccc(Br)cc2)c(C)c1[N+](=O)[O-] ?
YES

Hello, I am checking results. What call was entered for c1cc(-c2nn[nH]n2)ccc1CN1CCCCC1 ?
NO

Hello, I am checking results. What call was entered for CSc1c(SCc2ccccc2)cnn(Cc2ccccc2)c1=O ?
YES

Hello, I am checking results. What call was entered for COc1ccc(N2CCN(CCNC(=O)Nc3cc(Cl)ccc3Cl)CC2)cc1 ?
YES

Hello, I am checking results. What call was entered for COc1ccc(OC)c(CN2CCN(C(=O)CNC(=O)c3cc(C)cc(C)c3)CC2)c1 ?
NO

Hello, I am checking results. What call was entered for COc1ccc(/C(C)=N\NC(=O)c2ccc(-c3ccccc3)cc2)c(F)c1 ?
YES

Hello, I am checking results. What call was entered for CCN(CC(=O)NCc1cccs1)C(=O)c1ccc(OC)c(S(=O)(=O)N2CCOCC2)c1 ?
NO

Hello, I am checking results. What call was entered for Cn1c(CO)cnc1SCc1ccccc1 ?
NO

----------
assay: Primary qHTS for delayed death inhibitors of the malarial parasite plastid, 96 hour incubation; note: potency is the fitted concentration of half-maximal effect; conditions: P. falciparum luciferase reporter growth; series mostly up to 28.7 µM
About 22,000 (6.9%) of roughly 320,000 compounds were called active. Not shown: some 27% with an inconclusive outcome. For the sample, actives were picked, then their nearest neighbours and some compounds at random.
measured_attribute: Potency

Sample answers from the record:
CCOC(=O)c1cnc(SC)nc1Sc1ccc(Cl)cc1Cl
9.28 µM (active)
COc1cccc(N2C(=O)C3CCCN3C2c2ccc(F)cc2)c1 (configuration not stated)
10.4 µM (active)
COc1cc(CN2CCC(C(N)=O)CC2)ccc1OCc1ccccc1
inactive
Cn1ccc(=Nc2ccc(NC(=O)c3ccc(N=c4ccn(C)c5ccc([N+](=O)[O-])cc45)cc3)cc2)cc1
0.165 µM (active)
CCOC(=O)c1c(C)[nH]c(C(=O)OCC(=O)N2CCCC2=O)c1C
inactive
COc1ccc(S(=O)(=O)NC(C)C)cc1C(=O)NC1CCCCC1
inactive
CC(C)Oc1ccc(S(=O)(=O)N2CCOCC2)cc1NC(=O)C1CCCC1
11.7 µM (active)
COc1ccc(S(=O)(=O)N2CCOCC2)cc1NC(=O)CSc1cc(C)ccc1C
7.38 µM (active)

Just so you know, measured Potency for COC(=O)c1cc(OCC(=O)NC2CCCc3ccccc32)cc(C(=O)OC)c1 (configuration not stated) came out at inactive

Just so you know, measured Potency for O=S(=O)(NCCCN1CCOCC1)c1ccc(F)c(Cl)c1 came out at inactive

Just so you know, measured Potency for Cc1ccc(NC(=O)CN2C(=O)NC(C)(c3ccc(Cl)cc3)C2=O)c(Br)c1 (configuration not stated) came out at inactive

Just so you know, measured Potency for O=C(NCCCN1CCOCC1)c1ccc([N+](=O)[O-])cc1[N+](=O)[O-] came out at inactive

Just so you know, measured Potency for O=[N+]([O-])c1cc(S(=O)(=O)CCCN2CCOCC2)ccc1F came out at 10.4 µM (active)

Just so you know, measured Potency for COc1ccc(S(=O)(=O)N2CCOCC2)cc1C(=O)NC1CCCCC1 came out at 4.65 µM (active)

Just so you know, measured Potency for COc1ccc(S(=O)(=O)N2CCOCC2)cc1NC(=O)Cc1c(F)cccc1Cl came out at inactive

Just so you know, measured Potency for O=C(CNS(=O)(=O)c1ccccc1)N1CCN(C(=O)c2ccco2)CC1 came out at inactive

Just so you know, measured Potency for COc1ccc(N2C(=O)C3CCCN3C2c2cccc(OC)c2)cc1 (configuration not stated) came out at inactive

Just so you know, measured Potency for O=C(Nc1ccc(C(=O)N2CCCCC2)cc1)c1cccc([N+](=O)[O-])c1 came out at inactive

Just so you know, measured Potency for O=C(COC(=O)CNC(=O)C1CCCCC1)NCc1ccccc1 came out at inactive

Just so you know, measured Potency for COc1ccc(N2C(=O)C3CCCN3C2c2cc(OC)c(OC)cc2OC)cc1 (configuration not stated) came out at inactive

Just so you know, measured Potency for CC(=O)Nc1cccc(C(=O)OCC(=O)NCc2cc(C)c(O)c(C)c2)c1 came out at inactive

Just so you know, measured Potency for Cc1ccc(S(=O)(=O)N2CCOCC2)cc1NC(=O)CSc1nnc(N)s1 came out at inactive
